# Tested Target: FGFR1 (UniProt P11362)
# Sequence (P11362 whole entry, looked up): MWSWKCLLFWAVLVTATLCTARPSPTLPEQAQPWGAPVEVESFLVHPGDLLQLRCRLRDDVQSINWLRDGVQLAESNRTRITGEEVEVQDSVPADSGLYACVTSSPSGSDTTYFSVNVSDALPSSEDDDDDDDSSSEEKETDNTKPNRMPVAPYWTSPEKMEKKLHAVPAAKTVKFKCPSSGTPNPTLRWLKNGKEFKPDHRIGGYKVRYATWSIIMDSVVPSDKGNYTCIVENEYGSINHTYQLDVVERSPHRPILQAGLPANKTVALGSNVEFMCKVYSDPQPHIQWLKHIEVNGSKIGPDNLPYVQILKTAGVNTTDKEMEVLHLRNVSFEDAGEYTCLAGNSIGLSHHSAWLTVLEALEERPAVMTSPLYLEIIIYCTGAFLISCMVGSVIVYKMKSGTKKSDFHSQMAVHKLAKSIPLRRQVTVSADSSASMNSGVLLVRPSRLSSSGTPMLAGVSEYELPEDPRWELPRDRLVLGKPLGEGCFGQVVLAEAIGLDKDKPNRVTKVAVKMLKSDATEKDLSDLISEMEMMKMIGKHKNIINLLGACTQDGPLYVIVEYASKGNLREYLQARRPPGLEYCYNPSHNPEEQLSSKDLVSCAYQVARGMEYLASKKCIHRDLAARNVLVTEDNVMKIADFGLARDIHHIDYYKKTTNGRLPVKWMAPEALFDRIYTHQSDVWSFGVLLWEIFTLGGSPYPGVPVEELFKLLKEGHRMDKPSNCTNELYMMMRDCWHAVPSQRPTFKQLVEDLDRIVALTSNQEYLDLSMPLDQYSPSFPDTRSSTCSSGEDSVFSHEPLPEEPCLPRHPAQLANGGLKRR
# Experiment Summary: phosphorylation enrichment, bacterial display (enrichment ratio); higher = better substrate or ligand; peptides without Tyr show the background
phosphorylation enrichment vs 0.5: at or above is Satisfied, below is Not satisfied.

1. CTTIHYNFMCI [TP53_Y234_N239I_YF]; Satisfied
2. ARRHPYFYAPE [ALB_Y172]; Satisfied

Check if phosphorylation enrichment >= 0.5 (inclusive). Item: SSVKPYRVFCD [FGB_Y266_YF]
Not satisfied

Check if phosphorylation enrichment >= 0.5 (inclusive). Item: PINLYYLMDLS [ITGB2_Y131_D128N]
Satisfied

Check if phosphorylation enrichment >= 0.5 (inclusive). Item: DTKDDYSALSV [IL17RB_Y457_N458S]
Satisfied

Check if phosphorylation enrichment >= 0.5 (inclusive). Item: KSAAIYNPVIF [RHO_Y301_YF]
Satisfied

Check if phosphorylation enrichment >= 0.5 (inclusive). Item: SETDDYAEIIV [PTK2_Y397_D402V]
Satisfied

Check if phosphorylation enrichment >= 0.5 (inclusive). Item: VNCHQYDGLVE [ATP2A2_Y407]
Satisfied

Check if phosphorylation enrichment >= 0.5 (inclusive). Item: DGNTRYSTFSE [TKTL1_Y318_D315N]
Not satisfied

Check if phosphorylation enrichment >= 0.5 (inclusive). Item: HIAKVYRRDNP [HARS1_Y156]
Not satisfied

Check if phosphorylation enrichment >= 0.5 (inclusive). Item: AKRKNYAPVTM [CFAP47_Y557_A561T]
Not satisfied

Check if phosphorylation enrichment >= 0.5 (inclusive). Item: EEVKAYLDFGE [CHAC2_Y78_R82G]
Not satisfied

Check if phosphorylation enrichment >= 0.5 (inclusive). Item: TEFSQYMRRKN [MAX_Y73_I71S_YF]
Satisfied

Check if phosphorylation enrichment >= 0.5 (inclusive). Item: KELALYDENWF [RPS19_Y48_P47L]
Satisfied

Check if phosphorylation enrichment >= 0.5 (inclusive). Item: EFISECCGEII [EZH2_Y641_Y641C]
Satisfied

Check if phosphorylation enrichment >= 0.5 (inclusive). Item: GTSLIYWILFT [G6PC3_Y214_T216I]
Satisfied

Check if phosphorylation enrichment >= 0.5 (inclusive). Item: FADTAYNFRHG [PAH_Y166_I164T_YF]
Not satisfied

Check if phosphorylation enrichment >= 0.5 (inclusive). Item: MSSHHYDYKKY [ZNF445_Y428]
Not satisfied

Check if phosphorylation enrichment >= 0.5 (inclusive). Item: RLNCIYFKDQT [RS1_Y165_W163C_YF]
Satisfied

Check if phosphorylation enrichment >= 0.5 (inclusive). Item: PSSRDYKDNIK [PIGN_Y227_H229D]
Satisfied

* * *

Measured SH2 binding enrichment by item
# Tested Target: c-Src SH2
# Experiment Summary: SH2 binding enrichment of the phosphorylated peptide, bacterial display (enrichment ratio); higher = better substrate or ligand; peptides without Tyr show the background
The answer should be written as a number, with no unit following it.

Sample records with SH2 binding enrichment:
1) PLRANYLIARV [HLCS_Y635_D634N]; 0.992
2) RGFRQYAFDGK [HLA-A_Y140_D140Y_YF]; 0.534
3) GRSTFYWPRPR [GAGE12J_Y10_YF]; 0.563
4) SVTCTNSPALN [TP53_Y126_Y126N]; 0.385
5) FADTAYNFRHG [PAH_Y166_I164T_YF]; 0.45
6) NRLTDYYELLL [BBS10_Y536_P539L]; 1.16
7) THLARYSDELR [APOA1_Y190_P189R]; 0.554

Here is another sequence to look at.
Item DPEAAYTTRGG [EPHA3_Y779] has what recorded SH2 binding enrichment?
0.357

* * *

# Tested Target: c-Src SH2;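 also: peptide library displayed on the E. coli surface as eCPX fusions, selected cells deep-sequenced, score is each peptide's frequency after selection divided by its frequency in the input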
# Experiment Summary: SH2 binding enrichment of the phosphorylated peptide, bacterial display (enrichment ratio); higher = better substrate or ligand; peptides without Tyr show the background
Experimental Endpoint: SH2 binding enrichment
The answer should be written as a number, with no unit following it.

1. VPTSKYRGGGG [HBA1_Y141_L137P]; 0.558
2. KLIETCFSKNY [PLP1_Y50_Y50C]; 0.447

Item RQSTLYSFFPK [MSH6_Y8] has what recorded SH2 binding enrichment?
1.03

Item KDAGDYKCKAK [LRIT3_Y326] has what recorded SH2 binding enrichment?
0.83

Item GREEFYSTHPH [LRRK2_Y1402] has what recorded SH2 binding enrichment?
0.376

Item DTKDDYSALSV [IL17RB_Y457_N458S] has what recorded SH2 binding enrichment?
0.609

Item LRTAVHHEILI [CREBBP_Y1450_Y1450H] has what recorded SH2 binding enrichment?
0.48

Item TEYIQYMRRKN [MAX_Y73] has what recorded SH2 binding enrichment?
0.473

Item PLLLSYFLIKW [NUP160_Y773_YF] has what recorded SH2 binding enrichment?
0.662

* * *

# Tested Target: FGFR3 (UniProt P22607)
# Sequence (P22607 whole entry, looked up): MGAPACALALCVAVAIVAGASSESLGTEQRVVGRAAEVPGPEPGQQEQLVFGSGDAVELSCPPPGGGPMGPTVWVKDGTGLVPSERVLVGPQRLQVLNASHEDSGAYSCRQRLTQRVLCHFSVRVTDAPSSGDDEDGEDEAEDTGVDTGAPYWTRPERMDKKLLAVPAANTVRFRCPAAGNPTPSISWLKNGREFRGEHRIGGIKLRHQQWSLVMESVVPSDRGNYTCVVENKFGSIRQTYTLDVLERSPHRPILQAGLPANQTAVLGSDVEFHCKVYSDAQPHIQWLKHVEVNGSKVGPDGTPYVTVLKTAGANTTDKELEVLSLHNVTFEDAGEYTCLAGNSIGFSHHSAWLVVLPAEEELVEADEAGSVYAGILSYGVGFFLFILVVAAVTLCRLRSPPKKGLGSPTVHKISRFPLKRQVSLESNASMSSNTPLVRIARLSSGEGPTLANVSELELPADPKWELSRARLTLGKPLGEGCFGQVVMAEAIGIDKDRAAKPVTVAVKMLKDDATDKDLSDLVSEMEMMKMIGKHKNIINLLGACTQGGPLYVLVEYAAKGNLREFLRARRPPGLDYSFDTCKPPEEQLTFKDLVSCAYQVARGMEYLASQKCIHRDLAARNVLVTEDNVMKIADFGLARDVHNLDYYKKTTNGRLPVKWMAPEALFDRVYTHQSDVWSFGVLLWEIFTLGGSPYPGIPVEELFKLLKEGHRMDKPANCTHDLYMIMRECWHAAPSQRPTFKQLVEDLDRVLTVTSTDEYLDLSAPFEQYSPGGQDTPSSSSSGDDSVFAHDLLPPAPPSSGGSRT
# Experiment Summary: phosphorylation enrichment, bacterial display (enrichment ratio); higher = better substrate or ligand; peptides without Tyr show the background
Experimental Endpoint: phosphorylation enrichment
The answer should be written as a number, with no unit following it.

Sample records with phosphorylation enrichment:
1) TLRKTYGEMAD [ALB_Y108_E106K]; 0.51
2) EEVKAYLDFGE [CHAC2_Y78_R82G]; 0.942
3) SEKISYVFMKR [SSX7_Y48_L43S_YF]; 0.75
4) AVLALYNSTRD [TGFB1_Y81]; 0.547

Here is another sequence to look at.
Item KDFTIHNPNLL [VANGL1_Y290_Y290H] has what recorded phosphorylation enrichment?
0.561

* * *

# Tested Target: Fes (UniProt P07332)
# Sequence (P07332 whole entry, looked up): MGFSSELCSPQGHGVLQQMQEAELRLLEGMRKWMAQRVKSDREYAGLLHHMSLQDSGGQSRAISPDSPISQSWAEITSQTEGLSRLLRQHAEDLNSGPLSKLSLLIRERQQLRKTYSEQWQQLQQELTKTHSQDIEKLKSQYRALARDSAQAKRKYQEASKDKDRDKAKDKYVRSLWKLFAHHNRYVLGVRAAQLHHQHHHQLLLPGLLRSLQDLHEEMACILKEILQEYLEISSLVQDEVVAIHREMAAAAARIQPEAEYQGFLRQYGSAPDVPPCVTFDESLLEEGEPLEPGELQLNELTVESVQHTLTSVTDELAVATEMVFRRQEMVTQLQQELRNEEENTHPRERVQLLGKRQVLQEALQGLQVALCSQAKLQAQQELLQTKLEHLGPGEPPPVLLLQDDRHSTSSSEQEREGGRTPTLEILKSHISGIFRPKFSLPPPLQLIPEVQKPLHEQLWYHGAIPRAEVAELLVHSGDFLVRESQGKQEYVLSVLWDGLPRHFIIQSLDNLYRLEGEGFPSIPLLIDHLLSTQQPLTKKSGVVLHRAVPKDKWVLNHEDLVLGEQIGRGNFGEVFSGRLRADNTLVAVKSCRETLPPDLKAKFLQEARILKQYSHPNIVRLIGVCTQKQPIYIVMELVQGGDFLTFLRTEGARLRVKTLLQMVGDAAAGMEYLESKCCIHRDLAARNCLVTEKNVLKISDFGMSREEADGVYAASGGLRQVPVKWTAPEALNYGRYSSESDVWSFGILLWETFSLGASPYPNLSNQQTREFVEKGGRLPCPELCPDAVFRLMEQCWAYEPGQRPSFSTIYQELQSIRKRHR
# Experiment Summary: phosphorylation enrichment, bacterial display (enrichment ratio); higher = better substrate or ligand; peptides without Tyr show the background
phosphorylation enrichment vs 0.8: at or above is rule met, below is rule not met.

As a guide, the following entries are already answered.
1. NTPNTYLRVNV [ADD2_Y440]; rule met
2. DGSALYTGSAL [COL6A3_Y524]; rule not met
3. IRRSSYEDSSL [HNF4A_Y144_T139I]; rule not met
4. DELDKYSEVLK [TPM1_Y60_A63V]; rule met
5. RAADYYSQQMA [GBP6_Y334]; rule not met
6. FQKNIYSEEPR [LMNA_Y211_L215P]; rule met

Okay, now this sequence:
Check if phosphorylation enrichment >= 0.8 (inclusive). Item: ARVANYHRDGP [CAT_Y386_Q387H]
rule not met

* * *

# Tested Target: EPHB1 (UniProt P54762)
# Sequence (P54762 whole entry, looked up): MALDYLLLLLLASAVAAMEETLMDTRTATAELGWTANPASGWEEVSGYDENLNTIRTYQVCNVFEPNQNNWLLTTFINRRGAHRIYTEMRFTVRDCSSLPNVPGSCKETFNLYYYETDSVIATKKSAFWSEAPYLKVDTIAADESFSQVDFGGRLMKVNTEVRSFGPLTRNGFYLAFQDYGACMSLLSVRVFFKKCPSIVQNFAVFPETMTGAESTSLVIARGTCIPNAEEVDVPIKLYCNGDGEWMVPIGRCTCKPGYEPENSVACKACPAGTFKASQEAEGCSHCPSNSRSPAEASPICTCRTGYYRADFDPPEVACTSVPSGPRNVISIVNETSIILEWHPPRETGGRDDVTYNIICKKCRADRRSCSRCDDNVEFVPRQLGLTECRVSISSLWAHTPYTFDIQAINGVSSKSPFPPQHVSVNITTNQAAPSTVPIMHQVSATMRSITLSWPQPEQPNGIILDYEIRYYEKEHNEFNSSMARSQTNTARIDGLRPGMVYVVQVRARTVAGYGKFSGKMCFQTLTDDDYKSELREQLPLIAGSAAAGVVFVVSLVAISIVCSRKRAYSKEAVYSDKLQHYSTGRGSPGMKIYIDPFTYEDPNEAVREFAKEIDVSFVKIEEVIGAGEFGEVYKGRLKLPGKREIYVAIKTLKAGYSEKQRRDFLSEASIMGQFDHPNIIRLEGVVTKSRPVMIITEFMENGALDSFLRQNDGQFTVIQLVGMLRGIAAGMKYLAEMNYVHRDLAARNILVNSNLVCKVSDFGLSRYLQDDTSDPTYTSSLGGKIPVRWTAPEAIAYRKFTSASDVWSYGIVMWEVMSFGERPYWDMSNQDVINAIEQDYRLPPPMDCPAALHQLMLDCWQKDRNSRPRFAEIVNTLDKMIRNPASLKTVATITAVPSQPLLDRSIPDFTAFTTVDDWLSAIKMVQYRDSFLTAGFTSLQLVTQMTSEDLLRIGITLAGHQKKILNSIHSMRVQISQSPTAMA
# Experiment Summary: phosphorylation enrichment, bacterial display (enrichment ratio); higher = better substrate or ligand; peptides without Tyr show the background
Experimental Endpoint: phosphorylation enrichment
The answer should be written as a number, with no unit following it.

Item RLLRGYNQSAY [HLA-C_Y137_D138N] has what recorded phosphorylation enrichment?
0.538

Item KYVVVYFREID [IL17RB_Y447] has what recorded phosphorylation enrichment?
0.578

Item SVTCTYSPTLN [TP53_Y126_A129T] has what recorded phosphorylation enrichment?
0.92

Item EKAEVYRSENE [RIOK2_Y348_G349R] has what recorded phosphorylation enrichment?
0.51

* * *

# Tested Target: EPHB2 (UniProt P29323)
# Sequence (P29323 whole entry, looked up): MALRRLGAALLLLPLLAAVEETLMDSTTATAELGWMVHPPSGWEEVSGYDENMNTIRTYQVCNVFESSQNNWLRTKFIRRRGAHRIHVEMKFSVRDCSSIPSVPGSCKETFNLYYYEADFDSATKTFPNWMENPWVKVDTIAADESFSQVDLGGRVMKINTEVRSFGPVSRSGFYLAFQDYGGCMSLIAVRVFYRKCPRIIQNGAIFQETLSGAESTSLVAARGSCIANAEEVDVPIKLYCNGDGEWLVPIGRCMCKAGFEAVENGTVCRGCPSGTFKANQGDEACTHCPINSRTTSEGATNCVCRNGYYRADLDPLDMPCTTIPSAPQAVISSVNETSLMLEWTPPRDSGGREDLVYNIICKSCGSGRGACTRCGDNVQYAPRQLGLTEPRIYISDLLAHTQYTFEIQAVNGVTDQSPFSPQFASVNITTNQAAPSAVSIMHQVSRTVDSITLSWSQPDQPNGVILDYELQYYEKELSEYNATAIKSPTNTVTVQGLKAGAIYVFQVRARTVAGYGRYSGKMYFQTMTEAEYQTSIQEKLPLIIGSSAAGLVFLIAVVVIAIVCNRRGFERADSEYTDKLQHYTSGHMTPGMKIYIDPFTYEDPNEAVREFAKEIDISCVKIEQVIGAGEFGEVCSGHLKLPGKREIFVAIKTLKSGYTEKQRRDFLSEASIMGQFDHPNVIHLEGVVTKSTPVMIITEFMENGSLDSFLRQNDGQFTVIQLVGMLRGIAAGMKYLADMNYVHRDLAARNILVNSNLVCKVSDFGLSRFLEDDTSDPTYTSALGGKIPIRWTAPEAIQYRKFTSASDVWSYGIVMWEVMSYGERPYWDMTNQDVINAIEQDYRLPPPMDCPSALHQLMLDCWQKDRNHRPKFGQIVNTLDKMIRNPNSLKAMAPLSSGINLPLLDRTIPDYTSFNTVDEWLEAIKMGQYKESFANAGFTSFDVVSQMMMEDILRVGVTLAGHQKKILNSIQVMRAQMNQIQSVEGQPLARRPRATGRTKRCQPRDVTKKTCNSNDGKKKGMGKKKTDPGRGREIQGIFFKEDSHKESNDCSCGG
# Experiment Summary: phosphorylation enrichment, bacterial display (enrichment ratio); higher = better substrate or ligand; peptides without Tyr show the background
Measured phosphorylation enrichment by item

Sample records with phosphorylation enrichment:
1) FDNPVYQKTTE [LDLR_Y828]; 0.497
2) RRKRAYVEIEF [MAK16_Y282_Q277R_YF]; 0.658
3) VNRSGYTLIRK [ATP6V0A2_Y688]; 0.444
4) PEIIAYQPYGK [PRKCG_Y529]; 0.665
5) SVTCTYSPALN [TP53_Y126]; 0.723

Here is another sequence to look at.
Item ARKWGYTVKGI [OAT_Y158] has what recorded phosphorylation enrichment?
0.448

* * *

Measured phosphorylation enrichment by item
# Tested Target: EPHB2 (UniProt P29323)
# Experiment Summary: phosphorylation enrichment, bacterial display (enrichment ratio); higher = better substrate or ligand; peptides without Tyr show the background
The answer should be written as a number, with no unit following it.

1. RRVLVYGGRGA [QDPR_Y16]; 0.822
2. MARDISRASYY [ALK_Y1278_Y1278S]; 0.395
3. LKFAIYFEARE [LAMA2_Y1258_YF]; 0.983

Item RIRRRYCQVLN [IQCF1_Y144] has what recorded phosphorylation enrichment?
0.592

Item RHSGSYLVTSV [APC_Y2838] has what recorded phosphorylation enrichment?
0.559

Item SARFPYLMAEK [LDHB_Y173_R172P] has what recorded phosphorylation enrichment?
0.416

Item YQLPYYNMVPS [BMPR1A_Y458] has what recorded phosphorylation enrichment?
2.52

Item SRIWVYNHFRW [BRCA2_Y2621_YF] has what recorded phosphorylation enrichment?
0.612
